system: Glycine max; experiment: Inhibition of soybean LOX using sodium linoleate as substrate at 100 uM by spectrophotometric analysis
Reported metric: inhibition (%)
Your answer is read as %, so omit the unit and give the number.

Solved entries (count: 3):
molecule=Cc1oc2c(C)c3oc(=O)cc(C)c3cc2c1/C=C/C(=O)O reported_metric=inhibition observed_measurement=9
molecule=Cc1oc2c(C)c3oc(=O)cc(C)c3cc2c1-c1ccc(/C=C/C(=O)O)cc1 reported_metric=inhibition observed_measurement=13
molecule="Cc1cc2cc3c(C)cc(=O)oc3c(C)c2o1 [TRIOXSALEN]" reported_metric=inhibition observed_measurement=40

Turning to the following molecule.
Query: Under Glycine max: inhibition value of Cc1oc2c(C)c3oc(=O)cc(C)c3cc2c1-c1ccc(/C=C/C(=O)OC(C)(C)C)cc1 ?
Result: 33

###

system: Radical scavenging activity; assay: Antioxidant activity assessed as DPPH radical scavenging activity at 100 uM after 60 mins by spectrophotometric analysis; assay type: functional
Activity calls are given as the source filed them. The calls are words filed in the database; no cut-off is given here.
Reported metric: Activity

Solved entries (count: 6):
compound_string=Cc1oc2c(C)c3oc(=O)cc(C)c3cc2c1/C=C/C(=O)O target_entity="Radical scavenging activity" observed_measurement=11%
compound_string=O=c1ccc2c(O)c3ccoc3c(Br)c2o1 target_entity="Radical scavenging activity" observed_measurement=56%
compound_string=CCOC(=O)/C=C/c1c2occc2c(OC)c2ccc(=O)oc12 target_entity="Radical scavenging activity" observed_measurement=inactive
compound_string=CCOC(=O)/C=C/c1c2ccoc2c(OC)c2oc(=O)ccc12 target_entity="Radical scavenging activity" observed_measurement=6%
compound_string=CCCCOC(=O)/C=C/c1c2ccoc2c(OC)c2oc(=O)ccc12 target_entity="Radical scavenging activity" observed_measurement=7%
compound_string=COc1c2ccoc2c(/C=C/C(=O)OC(C)(C)C)c2oc(=O)ccc12 target_entity="Radical scavenging activity" observed_measurement=inactive

Query: // Activity lookup, key: COc1c2occc2cc2ccc(=O)oc12
Result: 16%

Query: // Activity lookup, key: CC(=O)c1c(C)oc2c(C)c3oc(=O)cc(C)c3cc12
Result: 14%

Query: // Activity lookup, key: CCOC(=O)/C=C/c1c(C)oc2c(C)c3oc(=O)cc(C)c3cc12
Result: 60%

Query: // Activity lookup, key: COc1c2occc2c(/C=C/C(=O)OC(C)(C)C)c2ccc(=O)oc12
Result: 3%

###

tested on: Rattus norvegicus; test: Antiinflammatory activity in Fischer-344 rat assessed as inhibition of carrageenan-induced paw edema at 0.01 mmol/kg, ip after 3.5 hrs relative to control; format: functional; settings: Fischer-344, ip
In this section, each of the compounds is paired with its reported inhibition in vivo at 10 µmol/kg.
Your answer is read as %, so omit the unit and give the number.

compound_string=Cc1oc2c(C)c3oc(=O)cc(C)c3cc2c1/C=C/C(=O)OC(C)(C)C observed_measurement=46
compound_string=CCCCOC(=O)/C=C/c1c2ccoc2c(OC)c2oc(=O)ccc12 observed_measurement=57
compound_string=COc1c2occc2c(-c2ccc(/C=C/C(=O)OC(C)(C)C)cc2)c2ccc(=O)oc12 observed_measurement=26.2

Turning to the following compound.
Query: // inhibition in vivo at 10 µmol/kg lookup, key: COc1ccc2c(c1)c(CC(=O)O)c(C)n2C(=O)c1ccc(Cl)cc1
Result: 47

###

assay: Cytotoxicity against human 1BR3 cells assessed as cell viability at 50 uM after 24 hrs by MTT assay; format: cell-based; details: read-out: Activity
In this section, each of the compounds is paired with its reported viability at 24 h, 50 µM.
Your answer is read as %, so omit the unit and give the number.

compound_string=COc1c2occc2c(-c2ccc(/C=C/C(=O)OC(C)(C)C)cc2)c2ccc(=O)oc12 reading_unit=% observed_measurement=66.3
compound_string=COc1c2ccoc2c(-c2ccc(/C=C/C(=O)O)cc2)c2oc(=O)ccc12 reading_unit=% observed_measurement=18.5
compound_string=CCCCOC(=O)/C=C/c1c2ccoc2c(OC)c2oc(=O)ccc12 reading_unit=% observed_measurement=98.9
compound_string=Cc1oc2c(C)c3oc(=O)cc(C)c3cc2c1/C=C/C(=O)OC(C)(C)C reading_unit=% observed_measurement=34.6

Turning to the following compound.
Query: // viability at 24 h, 50 µM lookup, key: Cc1cc2cc3c(C)cc(=O)oc3c(C)c2o1
Result: 92.2

###

tested on: Radical scavenging activity; experiment: Antioxidant activity assessed as DPPH radical scavenging activity at 100 uM after 60 mins by spectrophotometric analysis; type: functional
The source made the active and inactive calls. The rule behind the calls is not given here.
Reported metric: Activity

Solved entries (count: 10):
molecule=COc1c2occc2c(-c2ccc(/C=C/C(=O)OC(C)(C)C)cc2)c2ccc(=O)oc12 target_entity="Radical scavenging activity" reported_metric=Activity observed_measurement=18%
molecule=Cc1oc2c(C)c3oc(=O)cc(C)c3cc2c1-c1ccc(/C=C/C(=O)O)cc1 target_entity="Radical scavenging activity" reported_metric=Activity observed_measurement=inactive
molecule=Cc1oc2c(C)c3oc(=O)cc(C)c3cc2c1/C=C/C(=O)OC(C)(C)C target_entity="Radical scavenging activity" reported_metric=Activity observed_measurement=11%
molecule=COc1c2occc2c(/C=C/C(=O)OCc2cccc(Oc3ccccc3)c2)c2ccc(=O)oc12 target_entity="Radical scavenging activity" reported_metric=Activity observed_measurement=9%
molecule=Cc1oc2c(C)c3oc(=O)cc(C)c3cc2c1Br target_entity="Radical scavenging activity" reported_metric=Activity observed_measurement=100%
molecule=COc1c2ccoc2c(-c2ccc(/C=C/C(=O)OC(C)(C)C)cc2)c2oc(=O)ccc12 target_entity="Radical scavenging activity" reported_metric=Activity observed_measurement=12%
molecule=COc1c2ccoc2c(-c2ccc(/C=C/C(=O)O)cc2)c2oc(=O)ccc12 target_entity="Radical scavenging activity" reported_metric=Activity observed_measurement=28%
molecule=COc1c2occc2c(C(C)=O)c2ccc(=O)oc12 target_entity="Radical scavenging activity" reported_metric=Activity observed_measurement=8%
molecule=Cc1oc2c(C)c3oc(=O)cc(C)c3cc2c1-c1ccc(/C=C/C(=O)OC(C)(C)C)cc1 target_entity="Radical scavenging activity" reported_metric=Activity observed_measurement=inactive
molecule=COc1c2occc2c(/C=C/C(=O)O)c2ccc(=O)oc12 target_entity="Radical scavenging activity" reported_metric=Activity observed_measurement=7%

Query: // Activity lookup, key: COc1c2occc2c(Br)c2ccc(=O)oc12
Result: 8%

Query: // Activity lookup, key: O=c1ccc2c(O)c3ccoc3cc2o1
Result: 36%

###

In this section, each of the molecules is paired with its reported viability at 24 h, 50 µM.
experiment: Cytotoxicity against human 1BR3 cells assessed as cell viability at 50 uM after 24 hrs by MTT assay; format: cell-based; conditions: read-out: Activity

Solved entries (count: 2):
molecule="COc1c2occc2cc2ccc(=O)oc12 [METHOXSALEN]" observed_measurement=92%
molecule=O=c1ccc2c(O)c3ccoc3c(Br)c2o1 observed_measurement=91.6%

Turning to the following molecule.
Query: // viability at 24 h, 50 µM lookup, key: COc1c2ccoc2cc2oc(=O)ccc12 [BERGAPTEN]
Result: 91.7%

###

assay: Cytotoxicity against human 1BR3 cells assessed as cell viability at 100 uM after 24 hrs by MTT assay; type: cell-based; conditions: read-out: Activity
In this section, each of the compounds is paired with its reported viability at 24 h, 100 µM.
Your answer is read as %, so omit the unit and give the number.

Solved entries (count: 2):
compound_string=COc1c2occc2cc2ccc(=O)oc12 reported_metric="viability at 24 h, 100 µM" reading_unit=% observed_measurement=89.6
compound_string=Cc1cc2cc3c(C)cc(=O)oc3c(C)c2o1 reported_metric="viability at 24 h, 100 µM" reading_unit=% observed_measurement=95.2

Query: // viability at 24 h, 100 µM lookup, key: COc1c2ccoc2cc2oc(=O)ccc12
Result: 88.9

Query: // viability at 24 h, 100 µM lookup, key: O=c1ccc2c(O)c3ccoc3c(Br)c2o1
Result: 91

Query: // viability at 24 h, 100 µM lookup, key: CCCCOC(=O)/C=C/c1c2ccoc2c(OC)c2oc(=O)ccc12
Result: 90.3

Query: // viability at 24 h, 100 µM lookup, key: Cc1oc2c(C)c3oc(=O)cc(C)c3cc2c1/C=C/C(=O)OC(C)(C)C
Result: 22.2

Query: // viability at 24 h, 100 µM lookup, key: COc1c2ccoc2c(-c2ccc(/C=C/C(=O)O)cc2)c2oc(=O)ccc12
Result: 13.3

Query: // viability at 24 h, 100 µM lookup, key: COc1c2occc2c(-c2ccc(/C=C/C(=O)OC(C)(C)C)cc2)c2ccc(=O)oc12
Result: 46.3

###

tested on: Radical scavenging activity; assay: Antioxidant activity assessed as DPPH radical scavenging activity at 100 uM after 60 mins by spectrophotometric analysis; type: functional
Activity calls are given as the source filed them. The calls are words filed in the database; no cut-off is given here.
Reported metric: Activity

compound=Cc1oc2c(C)c3oc(=O)cc(C)c3cc2c1-c1ccc(C(=O)O)cc1 observed_measurement=inactive
compound=COc1c2occc2c(-c2ccc(C(=O)O)cc2)c2ccc(=O)oc12 observed_measurement=15%
compound=COc1c2ccoc2c(/C=C/C(=O)O)c2oc(=O)ccc12 observed_measurement=14%
compound=O=c1ccc2cc3ccoc3c(O)c2o1 observed_measurement=22%

Query: Under Radical scavenging activity: Activity value of O=c1ccc2c(Br)c3ccoc3c(O)c2o1 ?
Result: 43%
